Recorded Tm shift relative to glycine control for the following molecules
Test system: Glutamate receptor ionotropic, NMDA 3A (GRIN3A) ligand-binding domain
Experiment: binders of NR3A ligand-binding domain, primary screen, biophysical, differential scanning fluorimetry, uHTS (AID 1259313)
Conditions: NR3A LBD differential scanning fluorimetry, at 25 µM, hits give high values, 0% = protein alone, 100% = glycine-bound protein
Out of some 340,000 compounds screened, about 8,500 (2.5%) were called active. The list comes from a sample in which actives are over-represented; it also holds close analogues and randomly drawn compounds.
Output spec: scalar in %, unitless text.

Answered cases to consult:
In: State its Tm shift relative to glycine control for this molecule: O=C(N/N=C/c1sc(N2CCCCC2)nc1-c1cccs1)c1cccnc1
Out: -0.4

In: Name the recorded Tm shift relative to glycine control of the item O=C(CN1CCOCC1)N/N=C/c1ccc(-c2ccc(Br)cc2)o1 in your answer.
Out: -2.4

In: Give a short answer stating reported Tm shift relative to glycine control for COc1ccc2ccccc2c1CNc1nnnn1C .
Out: 0.15

In: Dear colleague, please send me the reported Tm shift relative to glycine control for COc1ccc(C(CNC(=O)c2cc3c(s2)CCCC3)N2CCOCC2)cc1 (centres undefined) when you can.
Out: 53.2

In: # return recorded Tm shift relative to glycine control for input Cc1ccc(C2(C)NC(=O)N(CC(=O)Nc3ccccc3C(=O)N3CCCCC3)C2=O)cc1 (centres undefined)
Out: -1.86

Turning now to a further molecule:
In: Check the records and state Tm shift relative to glycine control for O=C(OC1CCCCC1=O)c1cccc(S(=O)(=O)NCc2ccccc2)c1 (centres undefined)
Out: -0.25

###

Each entry below carries its reported Tm shift relative to glycine control.
Test system: Glutamate receptor ionotropic, NMDA 3A (GRIN3A) ligand-binding domain
Assay: binders of NR3A ligand-binding domain, primary screen, biophysical, differential scanning fluorimetry, uHTS (AID 1259313)
Settings: NR3A LBD differential scanning fluorimetry, at 25 µM, hits give high values, 0% = protein alone, 100% = glycine-bound protein
The whole screen tested about 340,000 compounds, of which about 8,500 (2.5%) were called active. Shown is part of a subset that was picked to be rich in actives.
Enter your answer as a number in %; do not include the unit.

Worked set:
In: Hello, please tell me recorded Tm shift relative to glycine control for this one: Cc1cccc(N2C(=O)c3ccc(C(=O)Nc4cccc(C(=O)O)c4)cc3C2=O)c1
Out: 11.6

In: Give the reported Tm shift relative to glycine control for this compound. COc1ccc(NC(=S)N2CCC(NC(=O)c3cccc(F)c3)CC2)cc1
Out: 1.82

In: Answer with the recorded Tm shift relative to glycine control of O=C(c1cnn(-c2ccc(Cl)cc2)c1)c1ccccc1O only.
Out: -2.84

In: Identify measured Tm shift relative to glycine control corresponding to CCCC(C(=O)OCCN(CC)CC)(c1ccccc1)c1ccccc1
Out: -1.26

In: Note Tm shift relative to glycine control for the compound shown: NS(=O)(=O)c1ccc(CCNc2nc(C(F)(F)F)nc3ccccc23)cc1
Out: -7.08

Others:
In: Give Tm shift relative to glycine control for CC1C(=O)Nc2ccc(S(=O)(=O)N3CCN(c4ccccc4F)CC3)cc2NC1=O (stereo not drawn)
Out: 0.26

In: Give recorded Tm shift relative to glycine control. C/C(Cc1ccccc1)=N\NC(=O)CNC(=O)c1ccccc1Cl
Out: 0

In: Specify measured Tm shift relative to glycine control for Cc1nc(N)nc(SCc2ccc([N+](=O)[O-])cc2)c1N .
Out: 1.88

###

Tested on: Glutamate receptor ionotropic, NMDA 3A (GRIN3A) ligand-binding domain
Test: binders of NR3A ligand-binding domain, primary screen, biophysical, differential scanning fluorimetry, uHTS (AID 1259313)
Details: NR3A LBD differential scanning fluorimetry, at 25 µM, hits give high values, 0% = protein alone, 100% = glycine-bound protein
Among all 340,000 compounds or so, about 8,500 (2.5%) were called active. What follows is part of a selection rich in actives, with near analogues and random picks from the rest.
Assay Endpoint: Tm shift relative to glycine control (%)
# number only, unit % dropped from output

In: Report Tm shift relative to glycine control for O=C1CSC(c2ccc(Cl)cc2)N1 (stereo not drawn)
Out: 0.65

In: Entry Cn1cc(/C=C/C(=O)N2CCCC(C(=O)c3ccc(C(F)(F)F)cc3)C2)cn1 (stereo not drawn) needs its Tm shift relative to glycine control filled in; supply it.
Out: 1.32

In: Give a short answer stating reported Tm shift relative to glycine control for CC1=CC(=C(C#N)c2nc3ccccc3s2)C=C(C)N1c1ccc(F)cc1F .
Out: -4.96

In: Indicate the recorded Tm shift relative to glycine control value for this compound: CCCOn1c(-n2nc(C)cc2C)nc2ccccc2c1=O
Out: 1.18

In: Identify Tm shift relative to glycine control associated with the compound CSc1nsc(NC(=O)Nc2ccccc2)n1
Out: 19.7

Others:
In: Dear colleague, please send me the reported Tm shift relative to glycine control for NS(=O)(=O)c1cc(C(=O)NCCOc2ccccc2)c(Cl)cc1Cl when you can.
Out: -0.6

In: Given the compound CC(CNC(=O)Cn1cnc2c(OCc3ccccc3)ncnc21)c1ccccc1 (stereo not drawn) , write its reported Tm shift relative to glycine control.
Out: 16.8

In: Please give the documented Tm shift relative to glycine control of C=CCSc1nsc(NC(=O)Nc2cccc(C(C)=O)c2)n1
Out: 15.6

###

System: Glutamate receptor ionotropic, NMDA 3A (GRIN3A) ligand-binding domain
Experiment: binders of NR3A ligand-binding domain, primary screen, biophysical, differential scanning fluorimetry, uHTS (AID 1259313)
Conditions: NR3A LBD differential scanning fluorimetry, at 25 µM, 0% = protein alone, 100% = glycine-bound protein
Out of some 340,000 compounds screened, about 8,500 (2.5%) were called active.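 The calls were made as follows: active = melting temperature shift of at least 10% of the positive control shift, at one fixed dose; inactive = the rest.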 The full list was thinned out, with actives kept by preference.
Respond with a class label; see Yes = active, No = inactive

In: Per the assay record, what outcome was assigned to O=C(CC1(O)C(=O)N(CN2CCOCC2)c2ccccc21)c1ccccc1 (configuration not stated) ?
Out: Yes

In: Fill in: this test's call for CCN1C(=O)C(C(=O)NC(C)c2ccccc2)C2CC1(C)Oc1ccccc12 (configuration not stated) is ___
Out: No

In: Give the logged outcome of this assay for the following molecule: NS(=O)(=O)c1ccc(CCNC(=O)CCCn2c(SCC(=O)N3CCCC3)nc3ccsc3c2=O)cc1
Out: No

---
In: I'd appreciate the recorded outcome for COc1ccc(NC(=O)NC2CC3CCCC(C2)N3Cc2ccccc2)cc1 (configuration not stated) from this test.
Out: No

In: Which result was noted for this molecule in the test: CC(Oc1ccccc1[N+](=O)[O-])C(=O)N/N=C/c1ccoc1 (configuration not stated)
Out: No

In: Hello, I am checking results. What call was entered for CC12CCC(C(=O)N(NC(=O)c3ccccc3O)C1=O)C2(C)C (configuration not stated) ?
Out: No

In: Called result for O=C1c2ccccc2C(O)N1Cc1ccccc1 (configuration not stated)
Out: No

In: Dear all, I need the recorded test outcome for Cc1nn(C)c(Cl)c1CN1CCC(Oc2ccc(C(=O)N3CCCC3)cc2)CC1 , thank you.
Out: Yes

In: What did this assay record as the result for Cc1cccc(N=C2NC(=O)/C(=C/c3cn(C)c4ccccc34)S2)c1 ?
Out: Yes

In: For this molecule, state the assay outcome: CCOC(=O)C(C)Sc1nc2ccccc2c(=O)n1CC1CCCCC1 (configuration not stated)
Out: Yes

In: Outcome? Cc1cc(Cl)ccc1OCCCC(=O)Nc1cccc(-n2cnnn2)c1
Out: No

In: Hi team, can someone confirm the assay call for O=C(COc1ccc([N+](=O)[O-])cc1)Nc1cccc(C(=O)Nc2ccccc2C(=O)O)c1 ?
Out: Yes

###

System: Glutamate receptor ionotropic, NMDA 3A (GRIN3A) ligand-binding domain
Test: binders of NR3A ligand-binding domain, primary screen, biophysical, differential scanning fluorimetry, uHTS (AID 1259313)
Conditions: NR3A LBD differential scanning fluorimetry, at 25 µM, hits give high values, 0% = protein alone, 100% = glycine-bound protein
Among all 340,000 compounds or so, about 8,500 (2.5%) were called active. Shown is part of a subset that was picked to be rich in actives.
Let's look at some molecules and their measured Tm shift relative to glycine control.
Numeric answer only, unit % assumed.

In: Write down the reported Tm shift relative to glycine control (system: Glutamate receptor ionotropic, NMDA 3A (GRIN3A) ligand-binding domain) of CC(C)NC(=O)NC(=O)CSc1nnc(-c2ccccc2F)n1N
Out: -0.64

###

Test system: Glutamate receptor ionotropic, NMDA 3A (GRIN3A) ligand-binding domain
Experiment: binders of NR3A ligand-binding domain, primary screen, biophysical, differential scanning fluorimetry, uHTS (AID 1259313)
Conditions: NR3A LBD differential scanning fluorimetry, at 25 µM, 0% = protein alone, 100% = glycine-bound protein
Hit rate of the full screen: of about 340,000 compounds, about 8,500 (2.5%) were called active.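 Rule for the calls: active = melting temperature shift of at least 10% of the positive control shift, at one fixed dose; inactive = the rest.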 For the sample, actives were picked, then their nearest neighbours and some compounds at random.
API: response.call in class 1 (active), class 0 (inactive)

The examples below pair each entry with its known result.
In: Hi, sorry to bother you, what did the test record for O=C(NC(=S)Nc1cccc(-c2ccc(CO)o2)c1)c1cccs1 ?
Out: class 0

In: Lab log entry: O=c1c2ccccc2ncn1/N=C/c1ccccc1 — outcome as called in the assay?
Out: class 0

In: For N#C/C(C(=S)Nc1ccccc1)=C1/NN=C(N2CCOCC2)N1c1ccccc1 , which call appears in the assay record?
Out: class 0

In: // param item: CN(CCO)c1ccc(/C=N/Nc2nncc3ccccc23)cc1 ; yields the recorded call
Out: class 0

In: Just curious, what result did COc1ccc(CNC(=O)COc2cccnc2[N+](=O)[O-])cc1 get here?
Out: class 0

Further cases:
In: Look up the recorded call for CSc1ccc(/C=N\NC(=O)CC(=O)NC(C)C)cc1 in this test.
Out: class 0

In: Status in this test for CCN(CC)c1ccc(NC(=O)C2CCC(CNc3c(N4CCCC4)c(=O)c3=O)CC2)c(C)c1 (configuration not stated) ?
Out: class 0

In: Look up the recorded call for Cc1ccc(CN2C(=O)N/C(=C/c3cc(C)n(-c4ccccn4)c3C)C2=O)cc1 in this test.
Out: class 1

In: What outcome does the record of this test show for N#Cc1cccc(CSc2nnc(CCCO)n2-c2ccccc2)c1 ?
Out: class 0

In: Can you look up the reported call for O=C(/C=C/NCc1ccc(F)cc1)c1ccccc1 for me?
Out: class 0

In: Assay outcome for COc1ccc2[nH]c3c(C)c4cc[n+](C)cc4c(C)c3c2c1 : what was it?
Out: class 0

In: Just curious, what result did O=C1/C(=C\c2ccc(O)cc2)CCC1CNc1ccc(Cl)cc1 (configuration not stated) get here?
Out: class 1

In: For Cc1ccc(C)c(S(=O)(=O)N2CCN(CC(=O)Nc3ccc([N+](=O)[O-])cc3)CC2)c1 , what call appears in the results of this test?
Out: class 0

In: Hello, I am checking results. What call was entered for CCC(C(=O)OCC(=O)Nc1ccccc1-c1ccccc1)c1ccccc1 (configuration not stated) ?
Out: class 0

In: # lookup: test call for CCOC(=O)CCc1c(C)c2ccc(OCc3nn[nH]n3)c(C)c2oc1=O
Out: class 0

In: Please share the test call associated with Cc1ccccc1-n1c(C)cc(/C=C2\NC(=O)NC2=O)c1C .
Out: class 0

In: What classification did CC1CCN(C2=NC(=O)/C(=C/c3ccc(O)cc3)S2)CC1 end up with in this test?
Out: class 0

In: Per the records of this test, what outcome belongs to CC(C(=O)NC1CCS(=O)(=O)C1)N1C(=O)/C(=C/c2ccc(Cl)cc2)SC1=S (configuration not stated) ?
Out: class 0
